System: Haemophilus influenzae (n = 14)
Test: MIC broth microdilution at IHMA Europe
Format: cell-based, H. influenzae
Conditions: Haemophilus influenzae, H. influenzae IHMA N° 1254355; read-out: MIC
MEASURED METRIC: MIC (µg/mL)
Entry rule: numbers only, all in µg/mL.

# annotated cases, reported MIC shown
C[C@H]1COc2c(N3CCN(C)CC3)c(F)cc3c(=O)c(C(=O)O)cn1c23.C[C@H]1COc2c(N3CCN(C)CC3)c(F)cc3c(=O)c(C(=O)O)cn1c23.O
0.12
C[C@@H](O)[C@H]1C(=O)N2C(C(=O)O)=C(SCCNC=N)C[C@H]12
0.5
Cc1[nH]c(C(=O)Nc2nc3c(N4[C@@H]5CC[C@H]4COC5)cc(C(=O)O)cc3s2)c(Cl)c1Cl
0.25
Cc1[nH]c(C(=O)Nc2nc3c(N4CCOCC4)cc(C(=O)O)cc3s2)c(Cl)c1Cl
0.25

Which MIC is reported with Haemophilus influenzae (n = 14) for this entry: `CC1(C)S[C@@H]2[C@H](NC(=O)[C@H](N)c3ccccc3)C(=O)N2[C@H]1C(=O)O` ?
2
